Values compiled from PubChem BioAssay (NCI).

Each entry below lists one item and its recorded growth value.
System: PC-3 prostate
Experiment: NCI-60 one-dose screen, 48 h (100 = growth as untreated, 0 = no growth, -100 = all killed)
Details: 10 µM unless noted
Description: Growth inhibition of the PC-3 human tumor cell line is measured as a screen for anti-cancer activity. Cells are grown in 96 well plates and exposed to the test compound for 48 hours. Compounds are tested at a single concentration, which is 10^-5 M for most compounds. The reported endpoint is percent growth (GI% or GIPRCNT), where numbers from 0 - 100% represent growth inhibition, and numbers from -100% - 0 represent cell death. For example, a value of 40 represents 60% growth inhibition. […]
This is part of a sample that, as a whole, favours compounds with a hit. Of some 83,000 tested, about 20% had one in any assay.
Respond with the bare value in %.

Known results for compounds:
In [3]: df
Out[3]:
                                   compound    measured_on  measured
0  CNc1nnc2n(-c3ccccc3)c(=O)c3cnn(-c4ccccc4)c3n12  PC-3 prostate      62.7
1  COc1ccc(-c2ccc(-c3ccc(C(=N)N)cc3)s2)cc1Cl  PC-3 prostate       -25
2  C#CCOc1ccc2ncnc(Nc3ccc(NC(=O)C=C)cc3)c2c1  PC-3 prostate      3.24
3                 O=[N+]([O-])c1ccc(O)cc1Br  PC-3 prostate      88.8
4  COc1ccc(-c2cc(-c3cc(OC)c(OC)c(OC)c3)c(C#N)c(=O)n2CCCCC(=O)NO)cc1  PC-3 prostate        61
5  CCCCCCCCCc1ccc(OCCOCCOCCOCCOCCOCCOCCOCCOCCO)cc1  PC-3 prostate      9.37
6  O=C(CN1C(=O)NC2NC(=O)NC21)N/N=C/c1ccccc1[N+](=O)[O-] (stereo unspecified)  PC-3 prostate       101
7  COc1ccc(Nc2nc(-c3cc(O)c(C)c(C)c3O)cs2)cc1  PC-3 prostate      43.9
8  COc1ccc(C(=O)Nc2cccc(-c3cc(=O)c4c(OC)c(OC)c(OC)cc4o3)c2)cc1  PC-3 prostate      31.9
9  C=C(C)[C@@H]1CCC[C@]2(COS(=O)(=O)c3ccc(C)cc3)CC[C@]3(C)[C@@H](CC[C@@H]4[C@@]5(C)CCCNC(C)(C)[C@@H]5CC[C@]43C)[C@@H]12  PC-3 prostate      10.5

**Q:** Bench note: what growth did COc1ccc(C(=O)/C=C/c2c(C(F)(F)F)nc3ccccn23)cc1OC show?
**A:** 30.6

**Q:** Name the reported growth value associated with the compound Cc1ccc(C)n1-c1ccccc1-n1c(C)ccc1C
**A:** 98.7

**Q:** Record request: growth value, item O=C1/C(=C/c2cccc(F)c2)CN(C(=O)C(Cl)Cl)C/C1=C\c1cccc(F)c1
**A:** -77.8
